All values here come from ChEMBL document CHEMBL4052743.

study system: Ribosyldihydronicotinamide dehydrogenase [quinone] (Homo sapiens)
assay name: Inhibition of QR2 (unknown origin) using MTT and NMeH as substrates relative to control
# reported Imax; entries follow
Report the value in % with no unit label.

Some entries whose results are on file:
COc1ccc2c(c1)C1(CC1CNC(C)=O)C(=O)N2C (stereo unspecified)    93.9
CC(=O)NCCC1C(=O)Nc2ccc(Br)cc21 (stereo unspecified)    29.9
CC(=O)NCCc1cn(C)c2c(C)c(C)ccc12    97.4
COc1ccc2c(c1)C1(C(=O)N2)C2CCC(C2)C1CNC(C)=O (stereo unspecified)    59.6
COc1ccc2c(c1)c(CCNC(C)=O)cn2C    102

Give the measured Imax of COc1ccc2[nH]c(Cl)c(CCNC(C)=O)c2c1 .
91

* * *

study system: Ribosyldihydronicotinamide dehydrogenase [quinone] (Homo sapiens)
Sequence (P16083 whole entry): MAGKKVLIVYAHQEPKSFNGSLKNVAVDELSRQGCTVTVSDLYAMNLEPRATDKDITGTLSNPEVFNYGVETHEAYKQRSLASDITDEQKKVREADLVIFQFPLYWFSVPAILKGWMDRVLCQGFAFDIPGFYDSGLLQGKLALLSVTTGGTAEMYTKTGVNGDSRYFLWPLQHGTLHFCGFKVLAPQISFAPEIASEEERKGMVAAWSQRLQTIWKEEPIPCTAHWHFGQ
measurement type: pIC50
The read-out pIC50 is expressed as -log10 of concentration in moles per litre.

Use the examples below as a reference point.
COc1ccc2c(c1)c(CCNC(C)=O)cn2C    5.24
COc1ccc2c(c1)C1(CC1CNC(C)=O)C(=O)N2C (stereo unspecified)    5.29
COc1ccc2c(c1)C1(C(=O)N2)C2CCC(C2)C1CNC(C)=O (stereo unspecified)    4.20
CC(=O)NCCC1C(=O)Nc2ccc(Br)cc21 (stereo unspecified)    4.72
COc1ccc2[nH]c(Cl)c(CCNC(C)=O)c2c1    4.89

Next compound, please.
Fill blank: measured pIC50 of the compound CC(=O)NCCc1cn(C)c2c(C)c(C)ccc12 is ____.
5.35
